Where these numbers come from: the Human Domainome abundance scans (Beltran et al. 2025)

B1: Transcription intermediary factor 1-beta, residues 620 to 671; numbered along this chain, Q13263 (parent)
chain: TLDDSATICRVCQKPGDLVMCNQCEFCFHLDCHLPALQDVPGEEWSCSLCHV

- Variants of: B1
- test-protocol: abundance fitness (aPCA) (normalised: wild type 0, dead -1); higher = more abundant; growth selection in yeast, the domain comes from the species named
- cond: Homo sapiens
Measured abundance fitness, listed per entry for reference.
API doc: respond with a numeric literal and nothing else, no unit.

Some solved entries appear below for comparison.
{"columns": ["changes", "experimental-endpoint", "measured-result"],
 "data": [
  ["A36S", "abundance fitness", 0.079],
  ["L49T", "abundance fitness", 0.301],
  ["E44F", "abundance fitness", -0.412]
]}

Recorded abundance fitness for L49V , please? -0.09

Proceed to D3H -0.205

Proceed to S46N 0.018

Proceed to H33G -0.159

Proceed to R10E -0.476

Proceed to H29N -0.504

Proceed to D3F 0.053

Proceed to V40P 0.264

Proceed to E44I -0.35

Proceed to F28K -0.427

Proceed to S46T -0.09
